Reference for the values: a protein production outcome set (Wang et al. 2014)

- protocol_details: label from the status in PepcDB records
readout_type: protein production

>>> result("DFELLHKLGGGNYGDVHLASVKDCNFVCALKRLSIKKLADFDIATQLRREIEIAFNTRHKYLLRTYAYFFDETDIYLIMEPCSNGMLYTELNRVKCFAPPTAARYVAQLAEALLYLHQHHILHRDIKPENILLDHNNNIKLADFGWSVHDPDNRRKTSCGTPEYFPPEIVGRQAYDTSADLWCLGIFCYELLVGKTPFVGKDTDQICKNIHSMHFKIPENIPSEAKDLIANLLLRDGSRRLALHRVVNHQFLLKYYYLPNNL")
"not failed"
>>> result("LKASGVQAQMAKQQEQDPTNLYISNLPLSMDEQELENMLKPFGQVISTRILRDSSGTSRGVGFARMESTEKCEAVIGHFNGKFIKTPPGVSAPTEPLLCKF")
"not failed"
>>> result("MSSASGLRRGHPAGGEENMTETDAFYKREMFDPAEKYKMDHRRRGIALIFNHERFFWHLTLPERRGTCADRDNLTRRFSDLGFEVKCFNDLKAEELLLKIHEVSTVSHADADCFVCVFLSHGEGNHIYAYDAKIEIQTLTGLFKGDKCHSLVGKPKIFIIQACRGNQHDVPVIPLDVVDNQTEKLDTNITEVDAASVYTLPAGADFLMCYSVAEGYYSHRETVNGSWYIQDLCEMLGKYGSSLEFTELLTLVNRKVSQRRVDFCKDPSAIGKKQVPCFASMLTKKLHFFPKSNLEHHHHHH")
"failed"
>>> result("MSLKNMADLSYVNIFTRDIVAMSAFYQQVFGFQEIESIRSPIFRGLDTGKSCIGFNAHEAYELMQLAQFSETSGIKFLLNFDVDTKEAVDKLVPVAIAAGATLIKAPYETYYHWYQAVLLDPERNVFRINNVLEGHHHHHH")
"not failed"
>>> result("MEVSRALLFELGVLLAVLAVLGAVARRFALSPIPVYLLAGLSLGNGGILGVAAAGEFIATGAPIGVVLLLLALGLEFSATEFASSLRHHLPSAGVDIVLNATPGAVAGWLLGLDGVAILGLAGVTYISSSGVIARLLEDLRRLGNRETPAVLSVLVLEDFAMAAYLPLFAVLATDGSWLEAVVGMTVAIAALLGAFAASYRWGHHVGRLVTHPDSEQLLLRVLGITLIVAAVAESLHASAAVGAFLVGLTLTGETADRARMVLTPLRDLFATIFFLGIGLSVDPGKLVSMLPVALALAAVTAATKVATGMFAARREGVARRGQLRAGTALVARGEFSLIIIGLAGASIPGVAALATAYVFVMAIVGPILARYTGGGLPAAAVASN")
"failed"
>>> result("MSIPFSNTHYRIPQGFGNLLEGLTREILREQPDNIPAFAAAYFESLLEKREKTNFDPAEWGSKVEDRFYNNHAFEEQEPPEKSDPKQEESQISGKEEETSVTILDSSEEDKEKEEVAAVKIQAAFRGHIAREEAKKMKTNSLQNEEKEENK")
"failed"

Ask: Answer with the recorded protein production of `MELIVPILAAAYLAVLLVKTAAALWVVRGERLRPARSAVATPADVAILQPILGGDAHLQEVLAANVQALPQAQFIWLLDTDDGPGNAAADAVVAQYPQLRIARMLVPPAPPGINPKAWKLDYALPHIDAPVSLILDDDAHLGDRALSQLLLDLAHADVVTALPYYRDSATLAGRLLAQFVNNNAALTYLGWLPFAAPLTINGMCYAARTEQLRRWGGFTALLEQLTDDLAFATLVRDRGGRLWQSTAPVAMRTDMPDLRGYVRQMHRWMLFASILLGRQRLRVRSAIGVLQGLPPVLLLAMLVCACVQHTWPAALCVLIVLLARALLLCGVQWRVTGAVRHRLLLSLCAECLQPLHLLHAALVRTIRWRTRRYRVLPDGCFRAE` only.
Result: failed

Ask: Answer with the recorded protein production of `MQDELVILSSIASIMVAIIVLILFYIEKIRTYVGVFFVYFSLTMMIAMFVGASIYLLYPSRVSLAIAFGINTFIMIPLIAYFLLKIAKLANTPFRGERTHVVIFSILLVLNEILMGTTFGIAQFGFSRFSNLYYSLYFSINSYWFFYPMMAEMLALYLLHYLKGSINRELFPLIGLATFPPTAFDYQEWFYSALIFSLAFSILGSILSKRLWRYVYLMLILSELILLINAIPYDIAIAISMILYYYQSLLPLRR` only.
Result: failed

Ask: Answer with the recorded protein production of `MSSRTRARGSKRAAGVHTVSIPRQRGRRRAQPFVIVFPESPSLTREALGFIGRALWKGRRALAPTALALLAFAVTGLLHVMAWWSSLILAPLAAGPLVWLAVMQVRRPGRGAVVLWRAGLALLATFTAAWAALAAGFGPLAGPLDLVWLLMWIAAQTAWLFVRRSH` only.
Result: failed

Ask: Answer with the recorded protein production of `MSVAFVPDWLRGKAEVNQETIQRLLEENDQLIRCIVEYQNKGRGNECVQYQHVLHRNLIYLATIADASPTSTSKAME` only.
Result: failed

Ask: Answer with the recorded protein production of `MRETIREIQKVAYWLAIKGLSEANAGNISVRLDERPEGYEVKSVNEYGFDYDGPEMYLLITATGSRMREVYEDDSKICLLHVLPGKHYEILHGNGKPTSEFPTHLMIHAKFKEMNPEKKAIVHTHPLNLLTLMNLEEFQELLPKMMKIHPEVLIFFPQGISVVEFEKPGSVELGLKTVEKSEGKDAVLWDKHGVVAFGKDVAEAYDRVEILEKAAEILLRVLSLGRNPTGVPEGWL` only.
Result: not failed

Ask: Answer with the recorded protein production of `MSGRHLMYLDYLVPSWHEIESRVIAMVGYQSGGQFRTSLNEEVASLGLNLRRIEAVRTAFYHAEWQAAHMLRQRFADLDINSIIDELLRVVQQMAMIVVGSTITGGLLGATVGAFAGGAGTIPLAGAGAVMGLKVSGWILGALGLASIAEFFVEGLPRIGG` only.
Result: failed

Ask: Answer with the recorded protein production of `MSSLLGTFLYTLETTLPVFAMVFIGIGLRRIGWIDQGFIATASALVFKATLPTLVFLSIIRADLDTTLSISMLIFYFLATLASFALVWFWATKRVRQEDRGVYVQGAFRGNCGIVGLALAANLYGDYGLSAGGLLLGLVIVVYNSLSVIVLLAYQPGKTMSLSNTLRDIARNPLIIGVVLAIPFAAFEITLPGWVMTSGDYFASLTLPLALLCIGATVSLKSIRSDSGPAMGSSIWKMVSLPALCTLVAWLAGFEGRELGLMFLFFASPTAAASFVMVKALGGNDRMAANIIALTTLLASVTVTTGVFVLQSIGVA` only.
Result: failed

###

- protocol_details: label from the status in PepcDB records
readout_type: protein production

>>> result("MTLWSVASVLTLAFIFWLNAVMTASPYIVYLSGLKKQSERKNRLVALLLLLASLLYFFLKVGSFAAEGFAGMIDTTYMQFIWTGPVGLFIQLQIAVAIAWIVYSVVKLKRIKWVLYVVAIGLMGWSFLSIGHGSDAVWWGKLALLTHLLVAWVWFGSLNSLRKLATSVPLAKAKAIMERFGVHMSAAVPILLIAGLVMYRSATGRWMPELPLTSYDTVLLAKLVFVALILLVAALHKLKFVPQLNDNAAAKRLKNSITAEMVLAVTIFILASALSSAFSPG")
"failed"
>>> result("MSMGKKHLNINSQNHQSTKDEDNNCKNSLFFGLFDDPESKRLRSGSMKRQYSDMGDSYHRVYDEQNDDVEYDGDGDGDEDEGSRMDMRVLMVLEYMRELYVGQLQLLKKMFPGAAKDEFLGFFNKIGDAVSQIKQDSRPPTKSMTMRRSLSAGSPRFTSKGVNLGPSDLRHERFKVTMVNAGGAAGSAGGGKGGSAAGQGQTKK")
"failed"
>>> result("MVRRCETQRGRWDNKVNILKDTDKFGFDLGFQLQESKKRFGPDLGFCIKRFAPPILQMSLEENENGPKPTWQIRSNRETSKAIRSAPPLTFSSFTGVSLGRKLPNNKNPESSKTRQEGFDTVEEGLKGDRGRTSVDRSEYDGG")
"failed"
>>> result("MKIPSVFMLEQQKASLQLHVKQLANEAIQKSAPSAWFEVLYAEAQGDTTQIPWAKLTPHPYLQEWLTNHQPFPSGQKALVIGCGLGDDAEALAKLGFAVTAFDISPTAIAWCGQRFPNSNVNYIVADLLAIPPQWHLAFDFVFECRNIQALPLNIRAEVITSIASVVAPDGTLLLINRVRLEHHHHHH")
"failed"
>>> result("MSKVIIPKIVGHRGVGKEGLAPENTLRSFVLCMERNIPYIETDLRVCKTGEIVLFHGTPEGTIPFYKDGTSRIGDLSLEELKRLDVGGGHTIPSLEELFVAIEEQKFNLKLNLELKGEEWKRKESGDHQRLLLLVEKYHMQERVDYCSFHHEALAHLKALCPDVKITYLFNYMGQPTPLDFVEQTQKACYGDANGVSMLFHYLTKEQVCTAHEKGLSVTVWMPWIFDDSEEDWKKCLELQVDLICSNYPFGLMNFLSNISE")
"not failed"

Ask: Answer with the recorded protein production of `MHAFPLTLDNRLAEALPLWRNLARTDRAPRRNIDLADWKADWRELIAALDRFSRSHGYRQPFAAQGHAALENAWAWGQAAENASTLLLKAIDRGLAGAELRSIYLETAALWLDYSRLLGAARDSLREQGEVDFETAPALAPRTGQYPFALQLLAMGVLLDAQELIPALVEEVLQFDTDRLLDYLGAAALGLTSASEETFHPRPFGQLRAFFEEADGSDAQALAPYLQSQYREFFQLSPKAQKKTRRLTGPYAWGWWAMEVSALGVLYGWDDGVLRASPHYLGDLVDYARARGDA` only.
Result: not failed

Ask: Answer with the recorded protein production of `APGTLVLAGTPIGDITDAPPRLAQELAGADVVAAEDTRRLRRLTQALGVQPAGRVVSYFEGNEAARTPELVEALLDGSRVLLVTDAGMPSVSDPGYRLVAAAVAKDIRVTAVPGPS` only.
Result: failed

Ask: Answer with the recorded protein production of `MSVNLGSLPRQRSLLSRLRDLWPLWLFLALLASALHYIVRYWPQIVLQSAIWQKSLHQQMSHLLQMVEQQPHQAGLSLMMFSLVYGVLHAVGPGHGKVVIMTYLATHPSKLKSSLKLTLAASLVQGLMAIALVTVVLGILQLSSRTLHNSSFWMEKGSFVLVAGLGLLLCFRALKQLYIVLVRQPKPATILRVIPLPVTPLNVAAHGRMTLSPIYAPSHSLHQHDVDCGCGHRHLPSNEELERGSSWHTRLMIVLAMGMRPCSGAIMVLLFSKVIGVYLWGVASALVMAAGTAITISALAVLVFYCRRVIERLGANRASPVWQRATFSLLSFAGGMILVGSGILLYLSAQPAMMGGIRPFSG` only.
Result: failed

Ask: Answer with the recorded protein production of `MKKLLRNLFGSGREEEKRSASDAMSGREQIVTNSEKSNLSTDPDHVNRQADTLKFDAIRAMNMGELVFATEALRKAMELRPEFETRYYLTEALLRRHLTEEALAQMNLLLEEVPMHTATLLNRAKLRLEQNDPSRALEDCGTGIESTSELEEQALFLYYGASAMKDMKNLKDALCLLKQAIEKNDAFIPARLLRARILIDLERYEEATQDLDWVAASDPEEEQVPMLRARLFMLEGKQQNAIQAYEELLSLDPFNEEGHCGIATLMIKEGRSAEAETFLREAIEEMPVQRNLILMLVEILENKGQTQEAAEWRAKLPEAEVESEAVNFNDLYKGNLY` only.
Result: failed

Ask: Answer with the recorded protein production of `MIYLRKANERGHANHGWLDSWHTFSFANYYDPNFMGFSALRVINDDVIEAGQGFGTHPHKDMEILTYVLEGTVEHQDSMGNKEQVPAGEFQIMSAGTGIRHSEYNPSSTERLHLYQIWIMPEENGITPRYEQRRFDAVQGKQLVLSPDARDGSLKVHQDMELYRWALLKDEQSVHQIAAERRVWIQVVKGNVTINGVKASTSDGLAIWDEQAISIHADSDSEVLLFDLPPV` only.
Result: not failed

Ask: Answer with the recorded protein production of `MRWRADFLSAWAEALLRKAGADEPSAKAVAWALVEADLRGVGSHGLLRLPVYVRRLEAGLVNPSPTLPLEERGPVALLDGEHGFGPRVALKAVEAAQSLARRHGLGAVGVRRSTHFGMAGLYAEKLAREGFVAWVTTNAEPDVVPFGGREKALGTNPLAFAAPAPQGILVADLATSESAMGKVFLAREKGERIPPSWGVDREGSPTDDPHRVYALRPLGGPKGYALALLVEVLSGVLTGAGVAHGIGRMYDEWDRPQDVGHFLLALDPGRFVGKEAFLERMGALWQALKATPPAPGHEEVFLPGELEARRRERALAEGMALPERVVAELKALGERYGVPWRDDA` only.
Result: not failed

Ask: Answer with the recorded protein production of `MDARFLYPLESCKIIHLLRHGQALHNVEAEKDRNALLSPHLFDAPLTDHGHQQVENLRERVVSSGLLKRVELVVTSPLFRTMQTAVGVFGNEYKQSSMTSSPPILALEVARDRNGVRPPDMRRNVSEYQTLFPTIDFSQIESEEDNLWRPDVRESEEEILARGLEFMKWLWKRPEKEVAVVSHGIVLQHMLYVFANDCDLSIRHELCKRFANCEIRTVVIVDKGMASSTEN` only.
Result: failed
